B1: GNB5 (parent)
chain: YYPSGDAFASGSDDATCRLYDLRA

# Variants of: B1
# protocol: protein stability index of a GFP-peptide fusion (GPS, HEK-293T) (PSI 1-6); higher = more stable;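 also: lentivirally expressed fusions sorted by FACS into six bins by GFP to DsRed ratio, PSI derived from sequencing read proportions per bin multiplied by bin number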
# measurement_context: c terminus: a fixed tail appended
Reported protein stability index is given for each of the following variants.
A bare number is all that is needed in reply.

Answered cases to consult:
G5D = 3.77
S10E = 3
T16K = 3.11
S10I = 1.79

Then there is this variant:
Lab note: measured protein stability index of G5Y was 2.4
